Target: GDP-bound KRAS wild-type protein (Homo sapiens)
Sequence (P01116 whole entry): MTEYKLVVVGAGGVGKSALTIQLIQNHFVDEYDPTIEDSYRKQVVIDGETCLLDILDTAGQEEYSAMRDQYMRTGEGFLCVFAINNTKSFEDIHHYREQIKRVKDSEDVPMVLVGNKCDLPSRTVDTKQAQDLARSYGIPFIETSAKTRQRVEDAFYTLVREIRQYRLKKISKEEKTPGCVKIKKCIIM
Test: Binding to KRAS by surface plasmon resonance (SPR), Single Cycle Kinetics
Conditions: SPR, Single Cycle Kinetics, GDP-bound KRAS wild-type protein; read-out: KRAS KD
pKd: −log10 of the molar value.

{"columns": ["compound", "pKd"],
 "data": [
  ["CCO[C@@H]1C[C@H]2C(=O)NC3(CCC3)C(=O)N(C)[C@@H](C3CCCC3)C(=O)N(C)[C@H](C(=O)N(C)C)CC(=O)N(C)[C@@H](COC)C(=O)N[C@@H]([C@@H](C)CC)C(=O)N(C)CC(=O)N(C)[C@H]3C/C=C\\CCN(C3=O)[C@@H](Cc3ccc(C(F)(F)F)cc3)C(=O)N(C)CC(=O)N[C@@H](CCc3cc(F)c(C(F)(F)F)c(F)c3)C(=O)N2C1 [PP1113]", 10.51],
  ["CCO[C@@H]1C[C@H]2C(=O)NC3(CC(C)(C)C3)C(=O)N(C)[C@@H](C3CCCC3)C(=O)N(C)[C@H](C(=O)N(C)C)CC(=O)N(C)[C@@H](CC)C(=O)N[C@@H]([C@@H](C)CC)C(=O)N(C)CC(=O)N(C)[C@H]3C/C=C\\CCN(C3=O)[C@@H](Cc3ccc(C(F)(F)F)cc3)C(=O)N(C)CC(=O)N[C@@H](CCc3ccc(C(F)(F)F)c(Cl)c3)C(=O)N2C1 [PP1746]", 10.27],
  ["CCO[C@@H]1C[C@H]2C(=O)NC3(CCC3)C(=O)N(C)[C@@H](C3CCCC3)C(=O)N(C)[C@H](C(=O)N(C)C)CC(=O)N(C)[C@@H](C)C(=O)N[C@@H]([C@@H](C)CC)C(=O)N(C)CC(=O)N(C)[C@H]3C/C=C\\CCN(C3=O)[C@@H](Cc3ccc(C(F)(F)F)cc3)C(=O)N(C)CC(=O)N[C@@H](CCc3cc(F)c(C(F)(F)F)c(F)c3)C(=O)N2C1 [PP1108]", 10.48]
]}
